B1: r4_43_TrROS_Hall (parent)
chain: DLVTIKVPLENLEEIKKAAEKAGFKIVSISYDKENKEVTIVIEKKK

- Variants of: B1
- Assay Explanation: folding stability dG (cDNA display proteolysis); higher = more stable
- Settings: PBS, room temperature
Measure: folding stability dG (kcal/mol)
Give just the number in kcal/mol; leave the unit off.

# example entries with known answers
Problem: Fill in: folding stability dG of `E20N` is ___
Result: 3.55

Problem: Please answer likewise for `K46A`
Result: 3.52

Problem: Now try `K21L` .
Result: 3.57

Problem: `K6S` , same question.
Result: 3.52

Problem: Similarly, `K21F` ?
Result: 4.43

Problem: Would you mind doing `I15T` as well?
Result: 3.38

Problem: What do you get for `K17C` ?
Result: 3.75

Problem: Please do the same for `E20W` as well.
Result: 3.99

Problem: What do you have for `E20R` ?
Result: 3.72

Problem: Can you handle `A22E` next?
Result: 3.2

---
Problem: Consider the variant shown here: `K44A` What is its recorded folding stability dG?
Result: 3.79

Problem: Do the same for `E43T` please
Result: 3.92
